- measured.target: Oxysterols receptor LXR-beta (Homo sapiens)
- test.summary: ATG_LXRb_TRANS: Attagene TRANS-FACTORIAL HepG2 Assay for human Liver X Receptor beta (LXRb) (AID 2282981)
- test.parameters: HepG2 Attagene TRANS GAL4-LXRb reporter, mRNA
Results filed as inconclusive are left out. Calls of active or inactive are those of the source. Rule for the calls: active = hit-call score of the fitted dose curve at least 0.9, where 1 is the maximum; inconclusive = response in the unintended direction; inactive = score below 0.9.

structure.smiles: Oc1cccc(O)c1
AC50: 6.23 nM (active)

structure.smiles: Nc1cccc2c(N)cccc12
AC50: inactive

structure.smiles: CCCCCCCCC(=O)O
AC50: inactive

structure.smiles: c1ccc2c(c1)ccc1ccccc12
AC50: inactive

structure.smiles: CCC(=C(c1ccc(O)cc1)c1ccc(OCCN(C)C)cc1)c1ccccc1
AC50: inactive

structure.smiles: C[C@@H]1C[C@H]2[C@@H]3CCC4=CC(=O)C=C[C@]4(C)[C@@]3(F)[C@@H](O)C[C@]2(C)[C@@]1(O)C(=O)COP(=O)(O)O
AC50: inactive
